# EXPERIMENTAL_SYSTEM: N2P1 (NHERF2 PDZ1) (Homo sapiens)
# Sequence (Q15599 11-90 limits assumed): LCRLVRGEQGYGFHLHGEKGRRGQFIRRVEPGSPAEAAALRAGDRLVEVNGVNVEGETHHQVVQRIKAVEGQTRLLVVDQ
# MEASUREMENT_NOTES: FP displacement binding to NHERF2 PDZ1
pKi: −log10 of the molar value. Ends that are not written are not given here.
Reported values of pKi for individual entries
ASSAY_ENDPOINT: pKi

1. ANSRWPTTRL [iCAL36TRL] :: 5.06
2. ANSRVQDTRL [iCAL36VQDTRL] :: 5.42
3. ANSRWQDTRL [iCAL36QDTRL] :: 5.51
